# ASSAY TARGET: full-length human PKCι (Homo sapiens)
# Construct: Recombinant, full-length human PKCι expressed in Sf21 insect cells is also commercially available
# TEST DETAILS: PKCι IC50 IMAP assay, full-length PKCι at 150 μM ATP
# CONDITION: read-out: IC50 in IMAP assay against full length PKCi at 150 μM ATP
READOUT TYPE: IC50

>>> print(df.to_string())
                                    molecule    observed_result
 0  Cc1ccc(Nc2cc(-c3nc(N[C@@H]4CCNC4)c4ccncc4n3)ccn2)nc1           < 100 nM
 1  c1ccc2c(c1)OCCC2Nc1cc(-c2nc(N3CCNCC3)c3c(C4CC4)cncc3n2)ccn1 (centres unmarked)           < 100 nM
 2      COc1cncc2nc(N3CCOCC3)nc(N3CCNCC3)c12     100 to 1000 nM
 3  CN1CCN(c2ccc(Nc3cc(-c4nc(N[C@@H]5CCNC5)c5ccncc5n4)ccn3)cn2)CC1           < 100 nM
 4  N[C@@H](CNc1nc(-c2ccncc2)nc2c(Nc3ccccc3)nccc12)Cc1ccccc1   1000 to 10000 nM
 5  COc1ccc(Nc2cc(-c3nc(N4CCNCC4)c4c(OC)cncc4n3)ccn2)cn1           < 100 nM
 6  COc1cncc2nc(-c3ccnc(NC(C)=O)c3)nc(N3CCNCC3)c12           < 100 nM
 7  FC(F)(F)C1(c2cc3c(-c4nc(N5CCNCC5)c5c(C6CC6)cncc5n4)ccnc3[nH]2)CCC1           < 100 nM
 8  CC1(C)CN(c2nc(-c3ccnc4[nH]c(C(C)(C)C)cc34)nc3cncc(C4CCC4)c23)CCN1           < 100 nM
 9  O=C(O)c1ccc(Nc2cc(-c3nc(N4CCNCC4)c4c(C5CC5)cncc4n3)ccn2)cc1     100 to 1000 nM
10  COc1cncc2nc(-c3ccnc(Nc4ccccc4)c3)nc(NC[C@@H]3CCCN3)c12     100 to 1000 nM
11  FC1CCC(Nc2cc(-c3nc(N4CCNCC4)c4c(C5CC5)cncc4n3)ccn2)CC1 (centres unmarked)           < 100 nM
12  CN1CCN(c2cccc(Nc3cc(-c4nc(N5CCC(O)CC5)c5c(C6CC6)cncc5n4)ccn3)c2)CC1           < 100 nM
13  CC(C)(C)c1cc2c(-c3nc(N4CCNCC4)c4c(Br)cncc4n3)ccnc2[nH]1           < 100 nM
14  NC1CCN(c2nc(-c3ccnc(Nc4c(F)cccc4F)c3)nc3cncc(C4CC4)c23)C1 (centres unmarked)     100 to 1000 nM
15  CN(C)CCNc1nc(-c2ccnc(Nc3c(F)cccc3F)c2)nc2cncc(C3CC3)c12     100 to 1000 nM
16  CC(C)(C)c1ccc(Nc2cc(-c3nc(N4CCNCC4)c4c(C5CC5)cncc4n3)ccn2)c(Cl)c1           < 100 nM
17  NC(=O)c1ccc(Nc2cc(-c3nc(N4CCNCC4)c4c(C5CC5)cncc4n3)ccn2)cc1           < 100 nM
18       c1cc(-c2nc(N3CCOCC3)c3ccncc3n2)ccn1  10000 to 40000 nM
19  COc1cncc2nc(-c3ccnc(Nc4ccccc4C(F)(F)F)c3)nc(N3CCNCC3)c12     100 to 1000 nM
20  COc1cccc(Nc2cc(-c3nc(N4CCC(O)CC4)c4c(OC)cncc4n3)ccn2)n1   1000 to 10000 nM
21  COc1cncc2nc(-c3ccnc(Nc4cnn(-c5ccccc5)c4)c3)nc(N3CCNCC3)c12           < 100 nM
22  Clc1cccc(Nc2cc(-c3nc(N4CCNCC4)c4c(C5CC5)cncc4n3)ccn2)n1           < 100 nM
23  CC(O)c1ccccc1Nc1cc(-c2nc(N3CCNCC3)c3c(C4CC4)cncc3n2)ccn1 (centres unmarked)     100 to 1000 nM
24  CC(F)(F)C1CN(c2nc(-c3ccnc(Nc4ccccc4)c3)nc3cncc(C4CC4)c23)CCN1 (centres unmarked)  10000 to 40000 nM
25  Fc1cccc(Nc2cc(-c3nc(N4CCNCC4)c4c(C5CC5)cncc4n3)ccn2)n1           < 100 nM
26  CN1CCN(c2cccc(Nc3cc(-c4nc(N5CCC(O)(O)C(F)(F)C5)c5c(C6CC6)cncc5n4)ccn3)c2)CC1           < 100 nM
27  N[C@H](CNc1nc(-c2ccncc2)nc2c(Oc3ccccc3)nccc12)Cc1ccccc1     100 to 1000 nM
28  Clc1ccccc1-c1cc2c(-c3nc(N4CCNCC4)c4c(C5CCC5)cncc4n3)ccnc2[nH]1           < 100 nM
29  O[C@H](CNc1nc(-c2ccncc2)nc2cnccc12)Cc1ccccc1   1000 to 10000 nM
30  c1cnc(Nc2cc(-c3nc(N4CCNCC4)c4c(C5CC5)cncc4n3)ccn2)cn1           < 100 nM
31  c1cnc(Nc2cc(-c3nc(N[C@@H]4CCNC4)c4ccncc4n3)ccn2)cn1   1000 to 10000 nM

====

# ASSAY TARGET: full-length human PKCι (Homo sapiens)
# Construct: Recombinant, full-length human PKCι expressed in Sf21 insect cells is also commercially available; purchased; host or cells: Sf21 insect cells
# TEST DETAILS: PKCι IC50 IMAP assay, full-length PKCι at 150 μM ATP
# Assay type: biochemical
# CONDITION: read-out: IC50 in IMAP assay against full length PKCi at 150 μM ATP
pIC50: −log10 of the molar value.
Measured pIC50, listed per entry.
READOUT TYPE: pIC50

>>> print(df.to_string())
                                   molecule  observed_result
0  COc1cncc2nc(-c3ccnc(Nc4ccccc4)c3)nc(N3CCNCC3)c12           > 7.00
1  Fc1nc(N2CCOCC2)ccc1Nc1cc(-c2nc(N3CCNCC3)c3c(C4CC4)cncc3n2)ccn1           > 7.00
2  COc1cncc2nc(-c3ccnc(Nc4cccnc4)c3)nc(N3CCNCC3)c12           > 7.00
3  CC(=O)Nc1cc(-c2nc(N3CCN[C@@H](CS(C)(=O)=O)C3)c3c(C4CC4)cncc3n2)ccn1     6.00 to 7.00
4  c1ccc2nc(Nc3cc(-c4nc(N5CCNCC5)c5c(C6CC6)cncc5n4)ccn3)ccc2c1           > 7.00
5  COc1cncc2nc(-c3ccnc(Nc4ccc(N5CCN(C)CC5)cc4C)c3)nc(N3CCNCC3)c12           > 7.00
6  Cc1noc(C)c1-c1nccc2c(NC[C@@H](N)Cc3ccccc3)nc(-c3ccncc3)nc12     4.40 to 5.00
7  Fc1cccc(F)c1Nc1cc(-c2nc(N3CCNCC3)c3c(Cl)cncc3n2)ccn1           > 7.00

====

Measured IC50, listed per entry.
# ASSAY TARGET: full-length human PKCι (Homo sapiens)
# Construct: Recombinant, full-length human PKCι expressed in Sf21 insect cells is also commercially available
# Sequence (P41743 1-596): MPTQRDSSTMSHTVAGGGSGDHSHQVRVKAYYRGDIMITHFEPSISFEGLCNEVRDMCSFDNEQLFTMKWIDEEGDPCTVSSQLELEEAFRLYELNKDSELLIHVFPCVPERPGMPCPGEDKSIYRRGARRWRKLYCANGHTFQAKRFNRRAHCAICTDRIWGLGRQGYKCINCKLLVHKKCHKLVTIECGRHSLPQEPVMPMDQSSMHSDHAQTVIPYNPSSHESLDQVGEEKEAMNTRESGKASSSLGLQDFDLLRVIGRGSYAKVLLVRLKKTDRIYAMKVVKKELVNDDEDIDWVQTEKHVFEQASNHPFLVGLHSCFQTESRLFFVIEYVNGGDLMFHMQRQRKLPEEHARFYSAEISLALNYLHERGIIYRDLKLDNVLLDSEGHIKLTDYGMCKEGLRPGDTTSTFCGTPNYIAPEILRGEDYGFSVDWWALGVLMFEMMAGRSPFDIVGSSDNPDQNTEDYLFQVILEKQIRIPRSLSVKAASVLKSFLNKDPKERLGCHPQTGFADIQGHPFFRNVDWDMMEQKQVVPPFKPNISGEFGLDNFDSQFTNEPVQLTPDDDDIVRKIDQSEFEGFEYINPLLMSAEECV
# TEST DETAILS: PKCι IC50 IMAP assay, full-length PKCι at 150 μM ATP
# CONDITION: read-out: IC50 in IMAP assay against full length PKCi at 150 μM ATP
READOUT TYPE: IC50

                                   compound  observed_result
0  FC(F)(F)c1cc2c(-c3nc(N4CCNCC4)c4c(C5CCCC5)cncc4n3)ccnc2[nH]1 [Example 2105]         < 100 nM
1  COc1cncc2nc(-c3ccncc3)nc(N3CCN(C)[C@@H](Cc4ccccc4)C3)c12 [Example 81, formic acid]   100 to 1000 nM
2  Nc1cccc(-c2nccc3c(NC[C@@H](N)Cc4ccccc4)nc(-c4ccncc4)nc23)c1 [Example 109]   100 to 1000 nM
3  OC1CCN(c2nc(-c3ccnc(Nc4cccc(F)n4)c3)nc3cncc(C4CC4)c23)CC1 [Example 805]   100 to 1000 nM
